What IC50 was measured for each of the following?
Protein target, amino acids: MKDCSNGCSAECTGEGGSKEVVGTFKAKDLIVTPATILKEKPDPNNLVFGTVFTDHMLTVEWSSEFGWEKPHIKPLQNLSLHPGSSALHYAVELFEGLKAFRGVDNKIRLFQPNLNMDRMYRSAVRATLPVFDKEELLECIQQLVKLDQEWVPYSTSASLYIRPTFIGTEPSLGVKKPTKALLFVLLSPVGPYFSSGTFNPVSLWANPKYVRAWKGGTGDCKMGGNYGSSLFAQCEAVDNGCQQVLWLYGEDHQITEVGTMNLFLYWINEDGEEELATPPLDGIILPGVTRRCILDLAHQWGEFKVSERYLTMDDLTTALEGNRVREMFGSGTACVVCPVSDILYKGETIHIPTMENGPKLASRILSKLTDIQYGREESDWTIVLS

Lab note: CO[C@@H]1C[C@@H](NC(=O)c2ncc(Cl)s2)C[C@@H](n2c(CC(C)C)nc3cnc(-c4ccccn4)cc32)C1 (stereo in doubt) gave IC50 of 500 to 1000 nM

Lab note: CC(C)Cc1nc2cnc(-c3ccc4ccoc4c3)cc2n1[C@@H]1CCC[C@H](NC(=O)c2ncc(Cl)s2)C1 gave IC50 of 1000 to 5000 nM

Lab note: CO[C@@H]1[C@@H](NC(=O)c2ncc(Cl)s2)CCC[C@H]1n1c(-c2ccccc2F)nc2cnc(-c3nc[nH]n3)cc21 gave IC50 of 1000 to 5000 nM

Lab note: O=C(N[C@H]1CCC[C@@H](n2c(-c3ccccc3F)nc3cnc(-n4nccn4)cc32)C1)c1ccc(Br)s1 gave IC50 of < 500 nM

Lab note: CC(C)Cc1nc2cnc(-c3ccccc3F)cc2n1[C@@H]1CCC[C@H](NC(=O)c2ncc(Cl)s2)C1 gave IC50 of > 5000 nM

Lab note: COC(=O)c1cnn(-c2cc3c(cn2)nc(-c2ccccn2)n3[C@@H]2CCC[C@H](NC(=O)c3ncc(C(F)F)s3)C2)n1 gave IC50 of 1000 to 5000 nM

Lab note: O=C(N[C@H]1CCC[C@@H](n2c(Oc3ccccc3F)nc3cnc(-c4nc[nH]n4)cc32)C1)c1ncc(Cl)s1 gave IC50 of 1000 to 5000 nM

Lab note: CC(C)Cc1nc2cnc(-c3ncccn3)cc2n1C1CCCC(NC(=O)c2ncc(Cl)s2)C1O (centres unmarked) gave IC50 of < 500 nM

Lab note: O=C(N[C@H]1CCC[C@@H](n2c(-c3ccccc3F)nc3cnc(-c4nc[nH]n4)cc32)C1)c1ncc(C(F)(F)F)s1 gave IC50 of < 500 nM

Lab note: CC(C)C(F)c1nc2cnc(-c3ccccn3)cc2n1[C@@H]1CCC[C@H](NC(=O)c2ncc(Cl)s2)C1 (some centres unmarked) gave IC50 of 1000 to 5000 nM

Lab note: Cc1cn(-c2cc3c(cn2)nc(-c2ccccn2)n3[C@@H]2CCC[C@H](NC(=O)c3ccc(Br)s3)C2)nn1 gave IC50 of 1000 to 5000 nM

Lab note: COc1ccccc1-c1nc2cnc(-c3nc[nH]n3)cc2n1[C@@H]1CCC[C@H](NC(=O)c2ncc(Cl)s2)C1 gave IC50 of < 500 nM

Lab note: O=C(N[C@H]1CCC[C@@H](n2c(-c3ccccc3C(=O)O)nc3cnc(-n4nccn4)cc32)C1)c1ncc(C(F)F)s1 gave IC50 of 1000 to 5000 nM

Lab note: O=C(N[C@H]1CCC[C@@H](n2c(-c3ncccc3F)nc3cnc(-n4ccnn4)nc32)C1)c1ncc(C(F)F)s1 gave IC50 of > 5000 nM

Lab note: CC(C)Cc1nc2cnc(-c3ccn(C(F)F)n3)cc2n1[C@@H]1CC(O)C[C@H](NC(=O)c2ncc(Cl)s2)C1 (stereo in doubt) gave IC50 of 500 to 1000 nM

Lab note: O=C(N[C@H]1CCC[C@@H](n2c(-c3ccccc3F)nc3cnc(-c4cn[nH]c4)cc32)C1)c1ncc(Cl)s1 gave IC50 of < 500 nM

Lab note: O=C(N[C@H]1CCC[C@@H](n2c(C3CCCOC3)nc3cnc(-c4nc[nH]n4)cc32)C1)c1ncc(Cl)s1 (single isomer, unassigned) gave IC50 of 1000 to 5000 nM

Lab note: CC(=O)N1CC(NC(=O)c2ccc(Br)s2)CC(n2c(-c3ccccn3)nc3ccc(C#N)cc32)C1 (centres unmarked) gave IC50 of > 5000 nM

Lab note: CO[C@H]1C[C@H](NC(=O)c2ncc(Cl)s2)C[C@H](n2c(CC(C)(C)C)nc3cnc(-c4ccccn4)cc32)C1 (single isomer, unassigned) gave IC50 of 1000 to 5000 nM

Lab note: Cc1noc(C)c1-c1nc2cnc(-n3nccn3)cc2n1[C@@H]1CCC[C@H](NC(=O)c2ncc(C(F)F)s2)C1 gave IC50 of > 5000 nM

Lab note: CC(=O)N1CC(NC(=O)c2ccc(Br)s2)CC(n2c(-c3ccccn3)nc3cc(-c4ncon4)ccc32)C1 (centres unmarked) gave IC50 of 1000 to 5000 nM

Lab note: O=C(N[C@H]1C[C@H](O)C[C@@H](n2c(-c3ccccc3F)nc3cnc(-c4ncco4)cc32)C1)c1ncc(Cl)s1 gave IC50 of < 500 nM

Lab note: O=C(N[C@H]1C[C@H](O)C[C@@H](n2c(-c3ccccc3F)nc3cnc(-c4nc[nH]n4)cc32)C1)c1ccc(Cl)s1 gave IC50 of < 500 nM

Lab note: O=C(N[C@@H]1C[C@H](n2c(-c3ccccc3F)nc3cnc(-c4nc[nH]n4)cc32)CS(=O)(=O)C1)c1ccc(Cl)s1 gave IC50 of < 500 nM

Lab note: O=C(N[C@H]1CCC[C@@H](n2c(-c3ccccc3F)nc3cnc(-c4noc(=O)[nH]4)cc32)C1)c1ncc(Cl)s1 gave IC50 of < 500 nM

Lab note: Cn1cc(-c2nc3cnc(-n4nccn4)cc3n2[C@@H]2CCC[C@H](NC(=O)c3ncc(C(F)F)s3)C2)cn1 gave IC50 of > 5000 nM
